# System: NCI-H522 lung
# test details: NCI tumour cell line growth inhibition, 48 h; in the data active = GI50 below about 0.43 µM; inactive = the rest
Response enum: active, inactive

Please review the following examples before continuing.
{"molecule": "CCn1c(-c2nonc2N)nc2ccccc21", "class assignment": "inactive"}
{"molecule": "CC[C@H](C)[C@H](NC(=O)[C@H]1CCCCN1C)C(=O)N(C)[C@H](CCc1nc(C(=O)N[C@@H](Cc2ccccc2)C[C@H](C)C(=O)O)cs1)C(C)C", "class assignment": "active"}
{"molecule": "[CH3][Sn]([CH3])([CH3])[S]C(=S)N1CCOCC1", "class assignment": "active"}
{"molecule": "COc1ccc2nc3ccccc3c(NCCNCCO)c2c1", "class assignment": "active"}
{"molecule": "CNC(=O)CCN1CCN(CC/C=C2\\c3ccccc3Sc3ccc(Cl)cc32)CC1", "class assignment": "inactive"}

Query: Hi team, can someone confirm the assay call for CC(C)=C[C@@H]1C[C@H](C)[C@H]2CC[C@H](C)c3c(O)c(OC4OC(C)C(O)C(O)C4O)c(C)c1c32 (stereo partly specified) ?
Reply: inactive
